Target Entity: T1, IL10Rα/IL2Rγ receptor (human, UniProt Q13651 22-578; P31785 23-369)
T1 sequence (looked up) 1: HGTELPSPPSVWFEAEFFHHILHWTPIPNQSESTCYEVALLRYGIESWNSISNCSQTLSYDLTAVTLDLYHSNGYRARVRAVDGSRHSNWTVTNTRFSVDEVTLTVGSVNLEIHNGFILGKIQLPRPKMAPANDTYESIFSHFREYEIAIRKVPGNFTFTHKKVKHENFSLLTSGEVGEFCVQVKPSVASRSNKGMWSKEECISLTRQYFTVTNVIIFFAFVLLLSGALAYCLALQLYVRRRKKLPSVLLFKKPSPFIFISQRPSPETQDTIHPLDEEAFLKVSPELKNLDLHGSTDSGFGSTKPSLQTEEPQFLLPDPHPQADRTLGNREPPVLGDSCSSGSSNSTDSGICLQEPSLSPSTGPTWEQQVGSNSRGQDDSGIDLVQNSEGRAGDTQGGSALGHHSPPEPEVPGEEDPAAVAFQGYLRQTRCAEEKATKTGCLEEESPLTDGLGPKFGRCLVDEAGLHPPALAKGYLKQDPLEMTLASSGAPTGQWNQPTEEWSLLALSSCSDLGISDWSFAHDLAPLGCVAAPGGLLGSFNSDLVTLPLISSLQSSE
T1 sequence (looked up) 2: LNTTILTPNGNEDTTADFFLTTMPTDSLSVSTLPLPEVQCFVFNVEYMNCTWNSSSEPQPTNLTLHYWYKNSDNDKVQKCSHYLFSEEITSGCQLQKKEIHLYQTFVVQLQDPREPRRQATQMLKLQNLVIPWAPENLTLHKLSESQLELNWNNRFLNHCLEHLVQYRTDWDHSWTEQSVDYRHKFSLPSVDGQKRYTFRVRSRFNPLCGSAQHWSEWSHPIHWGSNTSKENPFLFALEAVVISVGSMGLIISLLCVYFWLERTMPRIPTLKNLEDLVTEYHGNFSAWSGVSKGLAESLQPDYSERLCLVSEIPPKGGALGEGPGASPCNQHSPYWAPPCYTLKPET
Assay Explanation: cell-based or functional assay
pSTAT3 MFI, NK cells, 0.001 nM (unstimulated 1315) overview
Value Type: pSTAT3 MFI, NK cells, 0.001 nM (unstimulated 1315) (MFI)

Binder: DR395(DR229-DR239) (bispecific antibody) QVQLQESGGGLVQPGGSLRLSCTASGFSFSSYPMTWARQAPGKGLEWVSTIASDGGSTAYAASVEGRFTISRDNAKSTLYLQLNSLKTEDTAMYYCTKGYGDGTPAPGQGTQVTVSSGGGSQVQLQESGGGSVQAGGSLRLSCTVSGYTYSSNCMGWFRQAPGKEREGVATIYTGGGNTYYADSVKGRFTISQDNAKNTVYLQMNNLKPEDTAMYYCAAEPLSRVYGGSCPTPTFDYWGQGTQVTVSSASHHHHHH
Observed Result: 1270
//
Binder: DR441(DR236-DR231) (bispecific antibody) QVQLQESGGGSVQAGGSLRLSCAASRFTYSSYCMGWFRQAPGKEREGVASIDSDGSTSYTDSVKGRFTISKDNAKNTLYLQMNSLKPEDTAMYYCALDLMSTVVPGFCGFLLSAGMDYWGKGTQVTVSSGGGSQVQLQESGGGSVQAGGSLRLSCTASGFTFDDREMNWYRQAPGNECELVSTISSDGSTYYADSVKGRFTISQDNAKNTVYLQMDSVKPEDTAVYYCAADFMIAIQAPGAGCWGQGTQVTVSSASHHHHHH
Observed Result: 1260
//
Binder: DR471(DR241-DR231) (bispecific antibody) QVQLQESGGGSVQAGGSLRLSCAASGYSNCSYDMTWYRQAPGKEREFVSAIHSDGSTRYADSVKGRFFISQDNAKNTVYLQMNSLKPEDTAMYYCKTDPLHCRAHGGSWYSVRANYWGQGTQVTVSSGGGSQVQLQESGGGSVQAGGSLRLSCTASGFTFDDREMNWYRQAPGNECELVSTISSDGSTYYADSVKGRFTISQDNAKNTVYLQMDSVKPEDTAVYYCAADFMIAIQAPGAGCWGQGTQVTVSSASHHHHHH
Observed Result: 1260
//
Binder: DR465(DR240-DR231) (bispecific antibody) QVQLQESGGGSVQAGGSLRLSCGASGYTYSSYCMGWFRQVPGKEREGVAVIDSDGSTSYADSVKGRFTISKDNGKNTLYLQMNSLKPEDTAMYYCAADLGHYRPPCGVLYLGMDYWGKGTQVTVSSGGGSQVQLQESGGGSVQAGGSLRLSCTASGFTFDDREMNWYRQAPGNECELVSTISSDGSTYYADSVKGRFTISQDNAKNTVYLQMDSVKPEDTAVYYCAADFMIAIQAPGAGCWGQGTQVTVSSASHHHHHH
Observed Result: 1230
